System: HeLa MZ
Experiment: whole-cell filipin (free cholesterol) integrated intensity, Z-score; higher = more cholesterol staining
Details: compound concentration in added solution (µM; 5 µl added to 20 µl cells): 10; 18 h
Where a name gives a salt, the structure may show the parent alone.
Entries annotated with measured whole-cell filipin (z-score)
// keep it numeric: no unit symbol after the value

Which measured whole-cell filipin (z-score) value corresponds to CCCN(CCC)CCc1cccc2c1CC(=O)N2 [Ropinirole HCl] ? 0.26

Which measured whole-cell filipin (z-score) value corresponds to OC(c1cc(C(F)(F)F)nc2c(C(F)(F)F)cccc12)C1CCCCN1 (configuration not stated) [Mefloquine hydrochloride] ? -0.477

---
Which measured whole-cell filipin (z-score) value corresponds to CCc1c(C)[nH]c2c1C(=O)C(CN1CCOCC1)CC2 (configuration not stated) [Molindone hydrochloride] ? -0.707

Which measured whole-cell filipin (z-score) value corresponds to `O=C(O)Cc1cc(I)c(Oc2ccc(O)c(I)c2)c(I)c1` ? -0.883

---

Entries annotated with measured whole-cell filipin (z-score)
Tested on: A431
Assay: whole-cell filipin (free cholesterol) integrated intensity, Z-score; higher = more cholesterol staining
Details: compound concentration in added solution (µM; 5 µl added to 20 µl cells): 10; 18 h
Where a name gives a salt, the structure may show the parent alone.
// keep it numeric: no unit symbol after the value

Worked examples, 3 compounds total:
Which measured whole-cell filipin (z-score) value corresponds to O=C(CCCCCCC(=O)Nc1ccccc1)NO [Vorinostat] ? 1.83

Which measured whole-cell filipin (z-score) value corresponds to Nc1ccc(S(=O)(=O)Nc2cnc3ccccc3n2)cc1 [Sulfaquinoxaline sodium salt] ? -0.235

Which measured whole-cell filipin (z-score) value corresponds to COc1ccc(CC2c3cc(OC)c(OC)cc3CC[N+]2(C)CCC(=O)OCCCCCOC(=O)CC[N+]2(C)CCc3cc(OC)c(OC)cc3C2Cc2ccc(OC)c(OC)c2)cc1OC (centres undefined) [Atracurium besylate] ? -0.0896

---
Which measured whole-cell filipin (z-score) value corresponds to O=C(Nc1ccccc1)OCC(CN1CCCCC1)OC(=O)Nc1ccccc1 (centres undefined) [Diperodon hydrochloride] ? 0.922

---

System: HeLa MZ
Experiment: LBPA endosome anti-LBPA integrated intensity (sum per cell), Z-score; higher = more LBPA staining
Details: compound concentration in added solution (µM; 5 µl added to 20 µl cells): 10; 18 h
Structures can show the parent of a compound that is named as a salt.
We'd kindly ask you to apply these LBPA endosome anti-LBPA integrated intensity (z-score) classes: category 1 = under -0.2, category 2 = from -0.2 up to 0.9, category 3 = 0.9 and over

Could you place CN(C)CC/C=C1/c2ccccc2Sc2ccc(Cl)cc21 [Chlorprothixene hydrochloride] in its proper category? Many thanks. category 3

Could you place `Cc1c(Cl)cccc1Nc1ccccc1C(=O)O` in its proper category? Many thanks. category 1

Could you place `CO[C@H]1C[C@H](O[C@H]2[C@H](C)[C@@H](O[C@@H]3O[C@H](C)C[C@H](N(C)C)[C@H]3OC(C)=O)[C@@H](C)C[C@@]3(CO3)C(=O)[C@H](C)[C@@H](OC(C)=O)[C@@H](C)[C@@H](C)OC(=O)[C@@H]2C)O[C@@H](C)[C@@H]1OC(C)=O` in its proper category? Many thanks. category 3

Could you place `CC1(C)S[C@@H]2[C@H](NC(=O)[C@H](N)c3ccc(O)cc3)C(=O)N2[C@H]1C(=O)O` in its proper category? Many thanks. category 2

Could you place `O=C(O)CCc1nc(-c2ccccc2)c(-c2ccccc2)o1` in its proper category? Many thanks. category 1

---

Test system: HeLa MZ
Assay: LBPA endosome anti-LBPA integrated intensity (sum per cell), Z-score; higher = more LBPA staining
Conditions: compound concentration in added solution (µM; 5 µl added to 20 µl cells): 10; 18 h
Entries annotated with measured LBPA endosome anti-LBPA integrated intensity (z-score)
// keep it numeric: no unit symbol after the value

Which measured LBPA endosome anti-LBPA integrated intensity (z-score) value corresponds to COc1ccc(CC2c3cc(OC)c(OC)cc3CC[N+]2(C)CCC(=O)OCCCCCOC(=O)CC[N+]2(C)CCc3cc(OC)c(OC)cc3C2Cc2ccc(OC)c(OC)c2)cc1OC (stereo not drawn) [Atracurium besylate] ? -0.154

---
Which measured LBPA endosome anti-LBPA integrated intensity (z-score) value corresponds to C=CC[N@@+]12CC[C@@]34c5ccccc5N5/C=C6/[C@H]7C[C@H]8[C@@]9(CC[N@@+]8(CC=C)C/C7=C/CO)c7ccccc7N(/C=C(/[C@@H](C[C@@H]31)/C(=C\CO)C2)[C@H]54)[C@@H]69 [Alcuronium chloride] ? -0.288

Which measured LBPA endosome anti-LBPA integrated intensity (z-score) value corresponds to `CO[C@H]1/C=C/O[C@@]2(C)Oc3c(C)c(O)c4c(O)c(c(/C=N/N5CCN(C)CC5)c(O)c4c3C2=O)NC(=O)/C(C)=C\C=C\[C@H](C)[C@H](O)[C@@H](C)[C@@H](O)[C@@H](C)[C@H](OC(C)=O)[C@@H]1C` ? -0.231

---

System: HeLa MZ
Test: whole-cell filipin (free cholesterol) integrated intensity, Z-score; higher = more cholesterol staining
Conditions: compound concentration in added solution (µM; 5 µl added to 20 µl cells): 10; 18 h
Where a name gives a salt, the structure may show the parent alone.
QUANTITY_KIND: whole-cell filipin (z-score)
// keep it numeric: no unit symbol after the value

Which measured whole-cell filipin (z-score) value corresponds to Oc1ccc(OCc2ccccc2)cc1 [Monobenzone] ? 2.56

Which measured whole-cell filipin (z-score) value corresponds to CC(=O)SCC(Cc1ccccc1)C(=O)NCC(=O)OCc1ccccc1 (stereo unspecified) [Racecadotril] ? -0.415

Which measured whole-cell filipin (z-score) value corresponds to CN(C)C/C=C(/c1ccc(Br)cc1)c1cccnc1 [Zimelidine dihydrochloride monohydrate] ? -0.387

Which measured whole-cell filipin (z-score) value corresponds to CN(C)CCCN1c2ccccc2CCc2ccccc21 [Imipramine hydrochloride] ? -0.699

---
Which measured whole-cell filipin (z-score) value corresponds to CCC1(c2ccccc2)C(=O)NCNC1=O [Primidone] ? -0.472

Which measured whole-cell filipin (z-score) value corresponds to CN(C)CC/C=C1/c2ccccc2COc2ccc(CC(=O)O)cc21 [Olopatadine hydrochloride] ? 0.861

---

System: HeLa MZ
Assay: LBPA endosome anti-LBPA integrated intensity (sum per cell), Z-score; higher = more LBPA staining
Conditions: compound concentration in added solution (µM; 5 µl added to 20 µl cells): 10; 18 h
Where a name gives a salt, the structure may show the parent alone.
Please enter MET where LBPA endosome anti-LBPA integrated intensity (z-score) is greater than or equal to -0.5, and NOT MET where it is lower.

Below are worked cases with known answers.
Given the entry COC(=O)C1=C(C)NC(C)=C(C(=O)OC(C)C)C1c1cccc2nonc12 (stereo not drawn) , answer whether its LBPA endosome anti-LBPA integrated intensity (z-score) meets or surpasses -0.5. MET

Given the entry N=C(N)NCC1COC2(CCCCC2)O1 (stereo not drawn) [Guanadrel sulfate] , answer whether its LBPA endosome anti-LBPA integrated intensity (z-score) meets or surpasses -0.5. MET

Given the entry CCCC1O[C@@H]2C[C@H]3[C@@H]4CCC5=CC(=O)C=C[C@]5(C)[C@H]4[C@@H](O)C[C@]3(C)[C@]2(C(=O)CO)O1 (stereo partly drawn) [Budesonide] , answer whether its LBPA endosome anti-LBPA integrated intensity (z-score) meets or surpasses -0.5. NOT MET

Given the entry `O=c1oc2ccccc2c(O)c1Cc1c(O)c2ccccc2oc1=O` , answer whether its LBPA endosome anti-LBPA integrated intensity (z-score) meets or surpasses -0.5. NOT MET

Given the entry CN(C)CC/C=C1/c2ccccc2COc2ccc(CC(=O)O)cc21 [Olopatadine hydrochloride] , answer whether its LBPA endosome anti-LBPA integrated intensity (z-score) meets or surpasses -0.5. MET

Given the entry `CC(=O)[C@H]1CC[C@H]2[C@@H]3C=CC4=CC(=O)CC[C@@]4(C)[C@@H]3CC[C@]12C` , answer whether its LBPA endosome anti-LBPA integrated intensity (z-score) meets or surpasses -0.5. MET

Given the entry CCCc1ncc(C[n+]2ccccc2C)c(N)n1 [Amprolium hydrochloride] , answer whether its LBPA endosome anti-LBPA integrated intensity (z-score) meets or surpasses -0.5. NOT MET

Read the next record carefully.
Given the entry `O=C1O[C@H]([C@@H](O)CO)C(O)=C1O` , answer whether its LBPA endosome anti-LBPA integrated intensity (z-score) meets or surpasses -0.5. NOT MET

---

Test system: A431
Test: whole-cell filipin (free cholesterol) integrated intensity, Z-score; higher = more cholesterol staining
Conditions: compound concentration in added solution (µM; 5 µl added to 20 µl cells): 10; 18 h
Where a name gives a salt, the structure may show the parent alone.
Please enter condition met where whole-cell filipin (z-score) is greater than or equal to 0.1, and condition not met where it is lower.

Below are worked cases with known answers.
Given the entry CCn1cc(C(=O)O)c(=O)c2cc(F)c(N3CCNCC3)nc21 [Enoxacin] , answer whether its whole-cell filipin (z-score) meets or surpasses 0.1. condition met

Given the entry OCCN1CCN(CCCN2c3ccccc3Sc3ccc(Cl)cc32)CC1 [Perphenazine] , answer whether its whole-cell filipin (z-score) meets or surpasses 0.1. condition not met

Given the entry Cn1c([N+](=O)[O-])cnc1COC(N)=O [Ronidazole] , answer whether its whole-cell filipin (z-score) meets or surpasses 0.1. condition not met

Given the entry CCOC(=O)C1=C(COCCN)NC(C)=C(C(=O)OC)C1c1ccccc1Cl (stereo not drawn) [Amlodipine] , answer whether its whole-cell filipin (z-score) meets or surpasses 0.1. condition met

Given the entry CCOc1ccc(NC(C)=O)cc1 [Phenacetin] , answer whether its whole-cell filipin (z-score) meets or surpasses 0.1. condition not met

Given the entry C[C@H]1C[C@@H]2[C@H]([C@@H](O)C[C@@]3(C)[C@H]2CC[C@]3(O)C(=O)CO)[C@@]2(C)C=CC(=O)C=C12 [Methylprednisolone, 6-alpha] , answer whether its whole-cell filipin (z-score) meets or surpasses 0.1. condition not met

Given the entry O=C(O)CN(CCN(CC(=O)O)CC(=O)O)CCN(CC(=O)O)CC(=O)O [Pentetic acid] , answer whether its whole-cell filipin (z-score) meets or surpasses 0.1. condition not met

Given the entry COC(=O)CCc1ccc(OCC(O)CNC(C)C)cc1 (stereo not drawn) [Esmolol hydrochloride] , answer whether its whole-cell filipin (z-score) meets or surpasses 0.1. condition not met

Given the entry COC(c1ccccc1)(c1ccccc1)[C@H](Oc1nc(C)cc(C)n1)C(=O)O [Ambrisentan] , answer whether its whole-cell filipin (z-score) meets or surpasses 0.1. condition not met

Given the entry O=c1[nH]cc(F)c(=O)[nH]1 [5-fluorouracil] , answer whether its whole-cell filipin (z-score) meets or surpasses 0.1. condition met

---
Given the entry CC[N+](C)(CC)CCC[n+]1c(-c2ccccc2)c2cc(N)ccc2c2ccc(N)cc21 [Propidium iodide] , answer whether its whole-cell filipin (z-score) meets or surpasses 0.1. condition not met
